Cited source: patent US5846934A

# assay_system: SSTR2 (Rattus norvegicus, UniProt P30680)
# Sequence (P30680 whole entry): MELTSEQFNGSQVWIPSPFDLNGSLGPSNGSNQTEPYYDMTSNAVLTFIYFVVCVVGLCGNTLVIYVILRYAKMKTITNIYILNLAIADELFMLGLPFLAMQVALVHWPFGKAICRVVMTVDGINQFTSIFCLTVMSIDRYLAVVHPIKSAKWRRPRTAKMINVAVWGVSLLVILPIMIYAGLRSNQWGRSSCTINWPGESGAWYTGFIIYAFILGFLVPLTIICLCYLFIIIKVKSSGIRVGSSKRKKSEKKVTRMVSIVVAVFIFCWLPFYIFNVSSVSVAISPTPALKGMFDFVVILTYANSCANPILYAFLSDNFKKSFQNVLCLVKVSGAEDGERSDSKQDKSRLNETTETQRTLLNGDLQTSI
# assay_overview: Competitive binding, displacement of [125I]Tyr11 S-14
# Set-up: expressed in transfected cells; membrane protein
# stated_conditions: displacement of [125I]Tyr11 S-14, 250 pM, room temperature, 2 hours; read-out: SSTR2 Binding Affinity IC50
pIC50: −log10 of the molar value. Positions of bridges follow the written chain, without caps; N, C: chain ends. Non-standard residues stand in square brackets, D forms with d. Residues, ends and D or L forms follow the SMILES beside them. Phe(4-NO2) = N[C@@H](Cc1ccc([N+](=O)[O-])cc1)C(=O)O; 2Nal = N[C@@H](Cc1ccc2ccccc2c1)C(=O)O; d2Nal = N[C@H](Cc1ccc2ccccc2c1)C(=O)O; Abu = CC[C@H](N)C(=O)O
readout_type: pIC50

compound	assay_system	quantitative_readout
CC(=O)N[C@@H](Cc1ccc([N+](=O)[O-])cc1)C(=O)N[C@@H]1CSSC[C@@H](C(=O)N[C@H](Cc2ccc(O)cc2)C(N)=O)NC(=O)[C@H]([C@@H](C)O)NC(=O)[C@H](CCCCN)NC(=O)[C@@H](Cc2c[nH]c3ccccc23)NC(=O)[C@H](Cc2ccc(O)cc2)NC1=O	SSTR2 (Rattus norvegicus, UniProt P30680)	9.15
C[C@@H](O)[C@@H]1NC(=O)[C@H](CCCNC(=N)N)NC(=O)[C@@H](Cc2c[nH]c3ccccc23)NC(=O)[C@H](Cc2ccc(O)cc2)NC(=O)[C@H](NC(=O)[C@@H](N)Cc2ccc([N+](=O)[O-])cc2)CSSC[C@@H](C(=O)N[C@@H](Cc2ccc(O)cc2)C(N)=O)NC1=O [4-NO2 Phe Tyr Arg Thr Tyr] (H-[Phe(4-NO2)][dC]Y[dW]RTCY-NH2; disulfide 2-7 (inferred); N-terminus and C-terminus assumed)	SSTR2 (Rattus norvegicus, UniProt P30680)	7.24
CC[C@@H]1NC(=O)[C@H](CCCCN)NC(=O)[C@@H](Cc2c[nH]c3ccccc23)NC(=O)[C@H](Cc2ccc(O)cc2)NC(=O)[C@H](NC(=O)[C@@H](N)Cc2ccc([N+](=O)[O-])cc2)CSSC[C@@H](C(=O)N[C@@H](Cc2ccc(O)cc2)C(N)=O)NC1=O [4-NO2 Phe Tyr Lys Abu Tyr] (H-[Phe(4-NO2)][dC]Y[dW]K[Abu]CY-NH2; disulfide 2-7)	SSTR2 (Rattus norvegicus, UniProt P30680)	8.40
CC(C)[C@@H]1NC(=O)[C@H](CCCCN)NC(=O)[C@@H](Cc2c[nH]c3ccccc23)NC(=O)[C@H](Cc2ccc(O)cc2)NC(=O)[C@H](NC(=O)[C@@H](N)Cc2ccc3ccccc3c2)CSSC[C@@H](C(=O)N[C@@H](Cc2ccc(O)cc2)C(N)=O)NC1=O [L-Nal(2) Tyr Lys Val Tyr] (H-[2Nal][dC]Y[dW]KVCY-NH2; disulfide 2-7)	SSTR2 (Rattus norvegicus, UniProt P30680)	8.30
CC(C)[C@@H]1NC(=O)[C@H](CCCCN)NC(=O)[C@@H](Cc2c[nH]c3ccccc23)NC(=O)[C@H](Cc2ccc(O)cc2)NC(=O)[C@H](NC(=O)[C@H](N)Cc2ccc3ccccc3c2)CSSC[C@@H](C(=O)N[C@@H](Cc2ccc(O)cc2)C(N)=O)NC1=O [D-Nal(2) Tyr Lys Val Tyr] (H-[d2Nal][dC]Y[dW]KVCY-NH2; disulfide 2-7)	SSTR2 (Rattus norvegicus, UniProt P30680)	8.70
C[C@@H](O)[C@@H]1NC(=O)[C@H](CCCCN)NC(=O)[C@@H](Cc2c[nH]c3ccccc23)NC(=O)[C@H](Cc2ccc(O)cc2)NC(=O)[C@H](NC(=O)[C@@H](N)Cc2ccc([N+](=O)[O-])cc2)CSSC[C@@H](C(=O)N[C@@H](Cc2ccc(O)cc2)C(N)=O)NC1=O	SSTR2 (Rattus norvegicus, UniProt P30680)	8.52
